The binders listed here are annotated with their pKd.
# ASSAYED_TARGET: T1, human TROP2 protein (Sino Biological, #10428-H08H) (human, UniProt P09758 27-274)
# T1 construct: bought protein; also called human Trop2 protein antigen (His tag); not shown: His tag
# T1 sequence (looked up): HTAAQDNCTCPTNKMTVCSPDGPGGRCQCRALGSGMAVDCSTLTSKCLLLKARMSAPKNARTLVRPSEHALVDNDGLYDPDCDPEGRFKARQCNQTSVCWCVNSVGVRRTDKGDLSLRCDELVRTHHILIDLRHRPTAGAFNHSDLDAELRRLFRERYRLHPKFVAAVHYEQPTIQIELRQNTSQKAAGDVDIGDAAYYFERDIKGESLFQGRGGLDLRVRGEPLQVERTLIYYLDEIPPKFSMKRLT
# ASSAY_INFO: BLI, Octet RED96, AHC sensor
Quick note: pKd values are minus log10 of concentrations in mol/L.

{"BINDER": "comparative example 2 antibody Tab (hRS7) (antibody, human IgG1, kappa, V domains shown, prepared on the basis of sacituzumab govitecan (ChemPartner, #T07-001); naked antibody) VH: QVQLQQSGSELKKPGASVKVSCKASGYTFTNYGMNWVKQAPGQGLKWMGWINTYTGEPTYTDDFKGRFAFSLDTSVSTAYLQISSLKADDTAVYFCARGGFGSSYWYFDVWGQGSLVTVSS VL: DIQLTQSPSSLSASVGDRVSITCKASQDVSIAVAWYQQKPGKAPKLLIYSASYRYTGVPDRFSGSGSGTDFTLTISSLQPEDFAVYYCQQHYITPLTFGAGTKVEIKR", "REPORTED_MEASUREMENT": 9.70}

// moving on: another record for pKd
pKd for PR001143 (antibody, human IgG1, kappa, V domains shown, fully human IgG1/kappa; also called antibody No. (10)) VH: QVQLVESGGGVVQPGRSLRVSCAASGFIFSTYGMHWVRQAPGKGLEWVAVIWYDGSNEDYVDSVKGRFTISRDNSKNTLYLQMNSLRGEDTAVYYCARGGYNSGWWAFDVWGQGTLVTVSS VL: DIQMTQSPSSLSASVGDRVTITCRASQGISHFLAWYQQKPGKVPKLLIYAASTLQSGVPSRFSGSGSGTDFTLTISSLQPEDVATYYCQKFNSAPLTFGGGTKVEIKR ?
8.16

Source: patent US20240067748A1
